B1: DLC1 (parent)
chain: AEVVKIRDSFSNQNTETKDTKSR

# Variants of: B1
# PROTOCOL_SUMMARY: protein stability index of a GFP-peptide fusion (GPS, HEK-293T) (PSI 1-6); higher = more stable;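 also: lentivirally expressed fusions sorted by FACS into six bins by GFP to DsRed ratio, PSI derived from sequencing read proportions per bin multiplied by bin number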
# ASSAY_CONDITIONS: c terminus: native
// false strictly below 3 in protein stability index; true otherwise

The examples below pair each entry with its known result.
K5H	false
S22G	false
R7C	false
V3I	false

Input: Test whether the variant `K5V` records protein stability index of 3 or higher.
Output: false

Input: Textbook exercise: given the entry `V3M` , state whether its protein stability index is greater than or equal to 3.
Output: false

Input: For this variant, is measured protein stability index 3 or higher? `I6Y`
Output: false

Input: # bool: protein stability index of `N12T` >= 3
Output: false

Input: Determine whether this variant has protein stability index no lower than 3: `R23I`
Output: true

Input: Dear colleague, could you confirm whether `F10P` has protein stability index at or above 3?
Output: true

Values from the supplement of paper PMC10567573
